Origin of measurements: paper PMC7924340

- tested.system: T1, Acetylcholine binding protein from Lymnaea stagnalis (Lymnaea stagnalis, UniProt P58154 20-229)
- T1 construct: also called AChBP L. stagnalis; L. stagnalis AChBP
- T1 sequence (P58154 20-229): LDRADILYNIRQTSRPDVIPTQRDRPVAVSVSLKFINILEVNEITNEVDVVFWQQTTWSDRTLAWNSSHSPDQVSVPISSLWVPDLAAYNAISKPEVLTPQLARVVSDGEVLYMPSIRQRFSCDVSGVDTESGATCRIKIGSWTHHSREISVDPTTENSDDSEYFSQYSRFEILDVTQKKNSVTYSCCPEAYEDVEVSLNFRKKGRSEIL
- procedure.text: radioligand binding
- condition.context: both partners purified
Exercise: for every item that follows, state its recorded IC50.
Give bare numbers, in µM.

{"binder": "Tx-NM4 (natural protein) IRCFITPDVTSQICADGHVCYTKTWCDNFCASRGKRVDLGCAATCPTVKPGVNIKCCSTDNCNPFPTRNRP", "IC50 (µM)": 1.16}
{"binder": "Long type neurotoxin I from cobra N. oxiana (natural protein) ITCYKTPIPITSETCAPGQNLCYTKTWCDAWCGSRGKVIELGCAATCPTVESYQDIKCCSTDDCNPHPKQKRP", "IC50 (µM)": 0.0734}

Next binder, IC50 to be filled in.
IC50 reading for α-bungarotoxin from krait Bungarus multicinctus venom (natural protein) IVCHTTATSPISAVTCPPGENLCYRKMWCDAFCSSRGKVVELGCAATCPSKKPYEEVTCCSTDKCNPHPKQRPG : 0.0172
